# RUN DESCRIPTION: method code SF-AS, from DOI: 10.1016/0006-2952(77)90261-1, PMID: 588293
# APPLIED CONDITIONS: pH 7.4
The reader will find reported logD values listed item by item below.
MEASUREMENT KIND: logD

C=C(Br)CC1(C(C)C)C(=O)NC(=O)N(C)C1=O (stereo unspecified) :: 2.11
CCC1(C2=CC3CCC(C2)C3)C(=O)NC(=O)N(C)C1=O (stereo unspecified) :: 3.15
CCC1(C2=CCCCCC2)C(=O)NC(=O)N(C)C1=O (stereo unspecified) :: 2.82
CCC1(C2=CCCCC2)C(=O)NC(=O)NC1=O :: 1.77
C=CCC1(C(C)C)C(=O)NC(=O)NC1=O :: 1.22
C=C(Br)CC1(C(C)C)C(=O)NC(=O)NC1=O :: 1.47
CCCCCCCC1(CC)C(=O)NC(=O)NC1=O :: 2.91
C=CCC1(CC(C)(C)C)C(=O)NC(=O)NC1=O :: 1.71
CCC1(C2=CCCCC2)C(=O)NC(=O)N(C)C1=O (stereo unspecified) :: 2.25
CCCC1(CC)C(=O)NC(=O)NC1=O :: 0.66
CCC1(C2=CCCCCC2)C(=O)NC(=O)NC1=O :: 2.17
C=C(Br)CC1(C(C)CC)C(=O)NC(=O)NC1=O (stereo unspecified) :: 1.72
C=C(Br)CC1(C(C)CC)C(=O)NC(=O)N(C)C1=O (stereo unspecified) :: 2.43
C=CCC1(CC(=C)Br)C(=O)NC(=O)NC1=O :: 1.37
C=CCC1(C2=CCCC2)C(=O)NC(=O)N(C)C1=O (stereo unspecified) :: 1.89
C=CCC1(C(C)CCC)C(=O)NC(=O)NC1=O (stereo unspecified) :: 1.97
C=CCC1(C2C=CCC2)C(=O)NC(=O)NC1=O (stereo unspecified) :: 1.51
C=C(Br)CC1(C(C)CCC)C(=O)NC(=O)NC1=O (stereo unspecified) :: 2.09
CCCCCCCCC1(CC)C(=O)NC(=O)NC1=O :: 3.08
CCC1(C2=CC3CCC(C2)C3)C(=O)NC(=O)NC1=O (stereo unspecified) :: 2.53
CCCCCCC1(CC)C(=O)NC(=O)NC1=O :: 2.46

----------
# RUN DESCRIPTION: method code SF-AS, from DOI: 10.1016/0006-2952(77)90261-1, PMID: 588293
MEASUREMENT KIND: logP

CCC1(CC(C)C(C)C)C(=O)NC(=O)NC1=O (stereo unspecified) :: 2.02
